Source of measurements: ChEMBL document CHEMBL1139267

# tgt: hERG (KCNH2) (Homo sapiens, UniProt Q12809)
# Sequence (Q12809 whole entry): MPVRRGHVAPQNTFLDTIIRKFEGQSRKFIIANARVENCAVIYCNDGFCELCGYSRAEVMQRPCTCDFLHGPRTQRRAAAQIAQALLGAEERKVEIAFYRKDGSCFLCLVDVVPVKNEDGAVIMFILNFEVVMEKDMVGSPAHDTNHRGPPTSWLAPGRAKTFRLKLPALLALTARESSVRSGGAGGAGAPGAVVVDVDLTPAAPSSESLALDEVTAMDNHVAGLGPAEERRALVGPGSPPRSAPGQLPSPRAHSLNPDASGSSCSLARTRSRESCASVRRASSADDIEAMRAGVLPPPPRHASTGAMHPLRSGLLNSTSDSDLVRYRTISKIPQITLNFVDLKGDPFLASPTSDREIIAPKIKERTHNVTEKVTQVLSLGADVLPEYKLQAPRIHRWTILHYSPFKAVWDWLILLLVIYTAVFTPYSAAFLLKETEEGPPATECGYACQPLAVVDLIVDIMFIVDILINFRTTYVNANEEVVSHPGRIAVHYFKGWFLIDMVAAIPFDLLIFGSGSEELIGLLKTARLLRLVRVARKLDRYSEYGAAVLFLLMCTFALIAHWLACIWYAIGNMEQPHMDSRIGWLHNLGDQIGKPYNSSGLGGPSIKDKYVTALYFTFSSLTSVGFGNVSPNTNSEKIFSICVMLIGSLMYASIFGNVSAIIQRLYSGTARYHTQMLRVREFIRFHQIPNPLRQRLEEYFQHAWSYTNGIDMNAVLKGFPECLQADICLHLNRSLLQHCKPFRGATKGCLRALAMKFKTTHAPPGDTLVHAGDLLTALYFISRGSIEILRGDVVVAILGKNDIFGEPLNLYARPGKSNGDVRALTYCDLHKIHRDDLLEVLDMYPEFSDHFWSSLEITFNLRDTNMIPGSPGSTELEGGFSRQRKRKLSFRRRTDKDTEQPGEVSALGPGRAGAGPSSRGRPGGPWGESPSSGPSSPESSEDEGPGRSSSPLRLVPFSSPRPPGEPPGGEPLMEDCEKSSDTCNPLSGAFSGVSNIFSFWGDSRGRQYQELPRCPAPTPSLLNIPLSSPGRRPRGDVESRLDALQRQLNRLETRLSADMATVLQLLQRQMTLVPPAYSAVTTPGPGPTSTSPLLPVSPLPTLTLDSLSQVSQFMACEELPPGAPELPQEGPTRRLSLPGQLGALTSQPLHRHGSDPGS
# runDescription: Inhibition of human ERG receptor
propertyName: IC20
Quick note: unit goes after the number.

QUERY: # query: IC20 | item CCCCC1C(=O)N(C[C@H]2CC[C@H](OCC)CC2)CCC12CCN(C1(C)CCN(C(=O)c3c(C)ncnc3C)CC1)CC2 (stereo partly specified) | system: hERG (KCNH2) (Homo sapiens, UniProt Q12809)
RESULT: 3 µM

###

# runDescription: Metabolic stability in human liver microsomes assessed as clearance
# Format: ADME, Microsome
propertyName: microsomal CLint (µL/min/mg)
Express it in µL/min/mg; write the number only.

QUERY: Can you look up the measured microsomal CLint of CCCCC1CN(S(=O)(=O)N(C)C)CCC12CCN(C1(C)CCN(C(=O)c3c(C)ncnc3C)CC1)CC2 (stereo not drawn) for me?
RESULT: 207

QUERY: Can you look up the measured microsomal CLint of CCCCC1CN(S(=O)(=O)C2CCN(C(C)=O)CC2)CCC12CCN(C1(C)CCN(C(=O)c3c(C)ncnc3C)CC1)CC2 (stereo not drawn) for me?
RESULT: 70

QUERY: Can you look up the measured microsomal CLint of CCCCC1CN(S(=O)(=O)C2CCOCC2)CCC12CCN(C1(C)CCN(C(=O)c3c(C)ncnc3C)CC1)CC2 (stereo not drawn) for me?
RESULT: 280
